This listing pairs molecules with measured pIC50.
Target: human TLR9 (Homo sapiens, UniProt Q9NR96)
Construct: host or cells: HEK-Blue cells
Sequence (Q9NR96 26-1032): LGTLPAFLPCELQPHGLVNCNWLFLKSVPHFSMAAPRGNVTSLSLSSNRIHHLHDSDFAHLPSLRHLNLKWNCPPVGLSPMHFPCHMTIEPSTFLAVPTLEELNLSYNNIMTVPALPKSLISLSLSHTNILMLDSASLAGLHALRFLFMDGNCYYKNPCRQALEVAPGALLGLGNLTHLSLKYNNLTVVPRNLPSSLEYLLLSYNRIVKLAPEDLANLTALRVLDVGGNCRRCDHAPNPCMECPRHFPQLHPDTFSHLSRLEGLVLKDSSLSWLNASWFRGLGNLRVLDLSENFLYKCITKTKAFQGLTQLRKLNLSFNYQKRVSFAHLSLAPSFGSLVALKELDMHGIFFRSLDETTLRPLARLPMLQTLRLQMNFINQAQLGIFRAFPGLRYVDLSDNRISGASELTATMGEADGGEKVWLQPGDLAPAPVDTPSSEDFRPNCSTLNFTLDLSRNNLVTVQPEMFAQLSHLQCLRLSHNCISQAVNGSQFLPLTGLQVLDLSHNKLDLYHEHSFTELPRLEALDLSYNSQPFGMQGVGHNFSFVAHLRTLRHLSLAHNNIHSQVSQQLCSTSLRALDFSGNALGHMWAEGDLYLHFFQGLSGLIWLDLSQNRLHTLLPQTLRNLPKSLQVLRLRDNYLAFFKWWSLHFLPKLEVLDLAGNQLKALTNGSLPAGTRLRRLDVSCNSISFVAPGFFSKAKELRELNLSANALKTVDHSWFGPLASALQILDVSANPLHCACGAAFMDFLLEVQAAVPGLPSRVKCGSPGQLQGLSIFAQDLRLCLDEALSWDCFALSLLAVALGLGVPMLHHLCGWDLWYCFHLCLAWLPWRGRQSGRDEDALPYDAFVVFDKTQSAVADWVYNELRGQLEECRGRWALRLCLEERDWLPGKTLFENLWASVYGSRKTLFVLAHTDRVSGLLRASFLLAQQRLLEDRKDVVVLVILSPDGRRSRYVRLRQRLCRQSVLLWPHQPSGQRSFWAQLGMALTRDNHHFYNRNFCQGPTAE
Experiment: TLR9 inhibition reporter assay (HEK-Blue cells, SEAP reporter)
Format: cell-based
Conditions: HEK-Blue cells overexpressing human TLR9, stimulated with ODN2006 5 nM, 22 hour incubation
Quick note: pIC50 values are minus log10 of concentrations in mol/L.

Check out these entries, answers already filled in.
> print(dat)
                                    molecule  number
 1  COc1ccc(-c2c(C)[nH]c3cnc(-c4ccc(N5CCN(C(C)C)CC5)cc4)cc23)cc1OC [Example 2]    6.80
 2  COc1ccc(-c2c(C)[nH]c3cnc(C4CCN(C(=O)CCN5CCCC5)CC4)cc23)cc1OC [Example 23]    5.95
 3  COc1ccc(-c2c(C)n(C)c3cnc(C4CCN(C5CCN(CC(C)C)CC5)CC4)cc23)cc1OC [Example 17]    7.72
 4  COCCN1CCN(c2ccc(-c3cc4c(cc(-c5ccc(S(C)(=O)=O)cc5)n4C)c(C)n3)cc2)CC1 [Example 38]    7.25
 5  Cc1nc(-c2ccc(C3(O)CC4CCC(C3)N4C(C)C)c(F)c2)cc2c1cc(-c1ccc(S(C)(=O)=O)cc1)n2C (stereo not drawn) [Example 100]    6.74
 6  Cc1nc(-c2ccc(N3CCN4CCCC4C3)c(F)c2)cc2c1cc(-c1ccc(S(C)(=O)=O)cc1)n2C (stereo not drawn) [Example 65]    6.87
 7  COc1ccc(-c2cc3cnc(-c4ccc(N5CCN(CC6CC6)CC5)cc4)cc3n2C)cc1OC [Example 9]    7.68
 8  COc1ccc(-c2cc3cnc(C4CCN(Cc5ccc(C)nc5)CC4)cc3n2C)cc1OC [Example 8]    7.24
 9  COc1ccc(-c2c(C)n(C)c3cnc(-c4ccc(N5CCN(CC(C)(C)O)CC5)cc4)cc23)cc1OC [Example 3]    7.09
10  Cc1nc(-c2ccc(N3CC4CCC(C3)N4CCCO)cc2)cc2c1cc(-c1ccc(S(C)(=O)=O)cc1)n2C [Example 76]    7.28

Exam item: Field request: pIC50 | item: Cc1nc(-c2ccc(N3CCN(C(C)C)CC3)cc2)cc2c1cc(-c1cccc(S(C)(=O)=O)c1)n2C [Example 39]
Marked response: 6.17

Exam item: Report pIC50 for CC(C)(O)CN1C2CCC1CN(Cc1ccc(-c3cc4c(cn3)cc(-c3ccc(S(C)(=O)=O)cc3)n4C3CC3)cc1)C2 [Example 121] please.
Marked response: 6.89

Exam item: Give the measured pIC50 of Cc1nc(-c2cc(F)c(N3CCN4CCCC4C3)c(F)c2)cc2c1cc(-c1ccc(S(C)(=O)=O)cc1)n2C (stereo not drawn) [Example 98] .
Marked response: 6.67

Exam item: Suppose we examine the molecule COCCN1C2CCC1CN(c1cc(F)c(-c3cc4c(cc(-c5ccc(S(C)(=O)=O)cc5)n4C)c(C)n3)cc1F)C2 [Example 78] ; what pIC50 value has been reported?
Marked response: 6.83

Exam item: What pIC50 value was documented for this molecule, Cc1nc(-c2ccc(CN3CCN(CC(C)(C)O)CC3)cc2)cc2c1cc(-c1ccc(S(C)(=O)=O)cc1)n2C(F)F [Example 124] ?
Marked response: 6.35
